system: HT29; test: cells; assay type: cell-based; details: Homo sapiens, HT-29; HT29, 48 hours exposure, SRB; total growth inhibition (cytostatic effect); read-out: TGI
quantityName: IC (TGI) (nM)
Numbers only, in nM.

Query string: Kindly indicate its recorded IC (TGI). Item: COC1=CC[C@@H]([C@@H](C)/C=C(C)/C=C\C=C/C(=O)N[C@H](C(=O)N/C=C\C[C@@H](O)C/C=C(\C)Cl)C(C)C)OC1=O [Compound 30c]
Result string: 0.838

Query string: Kindly indicate its recorded IC (TGI). Item: COC1=CC[C@@H]([C@@H](C)/C=C(C)/C=C\C=C/C(=O)N[C@H](C(=O)N/C=C\C[C@H](C/C=C(\C)Cl)OC(N)=O)C(C)C)OC1=O
Result string: 0.128

For the next question, use this compound.
Query string: Kindly indicate its recorded IC (TGI). Item: C/C=C\C[C@H](O)C/C=C\NC(=O)[C@@H](NC(=O)\C=C/C=C\C(C)=C\[C@H](C)[C@@H]1CC=C(OC)C(=O)O1)C(C)(C)C [Compound 30b]
Result string: 92.7

----------
Field: log10 IC (TGI). Provide a value for each of the compounds that follow.
test system: A549; experiment: cells; assay type: cell-based; settings: Homo sapiens; A549, 48 hours exposure, SRB; total growth inhibition (cytostatic effect); read-out: TGI
The common logarithm of IC (TGI) in nM is what is listed.

Query string: Please respond with reported log10 IC (TGI) (system A549) for COC1=CC[C@@H]([C@@H](C)/C=C(C)/C=C/C=C/C(=O)N[C@H](C(=O)N/C=C\C[C@@H](O)C/C=C(\C)Cl)C(C)(C)C)OC1=O .
Result string: 1.83

Query string: Please respond with reported log10 IC (TGI) (system A549) for COC1=CC[C@@H]([C@@H](C)/C=C(C)/C=C\C=C/C(=O)N[C@H](C(N)=O)C(C)(C)C)OC1=O .
Result string: 3.08

Query string: Please respond with reported log10 IC (TGI) (system A549) for C/C=C\C[C@H](O)C/C=C\NC(=O)[C@@H](NC(=O)\C=C/C=C\C(C)=C\[C@H](C)[C@@H]1CC=C(OC)C(=O)O1)C(C)(C)C [Compound 30b] .
Result string: 2.51

Answer for every listed entry: what is its log10 IC (TGI)? The entries follow.
1. COC1=CC[C@@H]([C@@H](C)/C=C(C)/C=C\C=C/C(=O)N[C@@H](Cc2ccccc2)C(=O)N/C=C\C[C@H](C/C=C(\C)Cl)O[Si](C)(C)C(C)(C)C)OC1=O [Compound 29d]
2. COC1=CC[C@@H]([C@@H](C)/C=C(C)/C=C\C=C/C(=O)N[C@H](C(=O)N/C=C\C[C@@H](O)C/C=C(\C)Cl)C(C)C)OC1=O [Compound 30c]

Result string:
1. 2.90
2. 0.49

Query string: Please respond with reported log10 IC (TGI) (system A549) for C/C=C\C[C@@H](C/C=C\NC(=O)[C@@H](NC(=O)\C=C/C=C\C(C)=C\[C@H](C)[C@@H]1CC=C(OC)C(=O)O1)C(C)(C)C)OC(N)=O .
Result string: 0.39

----------
tested on: HT29; experiment: cells; format: cell-based; details: Homo sapiens, HT-29; HT29, 48 hours exposure, SRB; total growth inhibition (cytostatic effect); read-out: TGI
quantityName: IC (TGI) (nM)
One number for each entry, in nM.

Answer for every listed entry: what is its IC (TGI)? The entries follow.
1. COC1=CC[C@@H]([C@@H](C)/C=C(C)/C=C\C=C/C(=O)N[C@H](C(=O)N/C=C\C[C@@H](O)C/C=C(\C)Cl)C(C)(C)C)OC1=O [Compound 30a]
2. COC1=CC[C@@H]([C@@H](C)/C=C(C)/C=C/C=C/C(=O)N[C@H](C(=O)N/C=C\C[C@@H](O)C/C=C(\C)Cl)C(C)(C)C)OC1=O
3. COC1=CC[C@@H]([C@@H](C)/C=C(C)/C=C\C=C/C(=O)N[C@@H](Cc2ccccc2)C(=O)N/C=C\C[C@@H](O)C/C=C(\C)Cl)OC1=O [Compound 30d]

Result string:
[2.13, 63.9, 0.251]

----------
tested on: HT29; assay: cells; type: cell-based; details: Homo sapiens, HT-29; HT29, 48 hours exposure, SRB; total growth inhibition (cytostatic effect); read-out: TGI
quantityName: IC (TGI) (nM)
Numbers only, in nM.

# count of solved cases: 2
Query string: Please respond with reported IC (TGI) (system HT29) for C/C=C\C[C@@H](C/C=C\NC(=O)[C@@H](NC(=O)\C=C/C=C\C(C)=C\[C@H](C)[C@@H]1CC=C(OC)C(=O)O1)C(C)(C)C)OC(N)=O [Compound 4] .
Result string: 0.928

Query string: Please respond with reported IC (TGI) (system HT29) for COC1=CCC(C(C)/C=C(C)/C=C/C=C\C(=O)NC(C(=O)N/C=C\CC(C/C=C(\C)Cl)OC(N)=O)C(C)C)OC1=O (stereo not drawn) [Compound 6] .
Result string: 1.01

Answer for every listed entry: what is its IC (TGI)? The entries follow.
1. COC1=CC[C@@H]([C@@H](C)/C=C(C)/C=C\C=C/C(=O)N[C@@H](Cc2ccccc2)C(=O)N/C=C\C[C@H](C/C=C(\C)Cl)O[Si](C)(C)C(C)(C)C)OC1=O [Compound 29d]
2. C/C(Cl)=C\C[C@H](O)C/C=C\NC(=O)[C@@H](NC(=O)\C=C/C=C\C(C)=C\[C@H](C)[C@@H]1CC=CC(=O)O1)C(C)(C)C [Compound 30f]
3. COC1=CC[C@@H]([C@@H](C)/C=C(C)/C=C\C=C/C(=O)N[C@@H](C(N)=O)C(C)(C)C)OC1=O [(15R)-7]
4. COC1=CC[C@@H]([C@@H](C)/C=C(C)/C=C\C=C/C(=O)N[C@H](C(=O)N/C=C\C[C@H](O)C/C=C(\C)Cl)C(C)(C)C)OC1=O [(21S)-30a]

Result string:
872
713
593
3.02

----------
Field: GI50. Provide a value for each of the molecules that follow.
system: MDA-MB-231; assay: cells; assay type: cell-based; details: Homo sapiens; MDA-MB-231, 48 hours exposure, SRB; concentration that produces 50% growth inhibition; read-out: GI50
Answer as a quantity: numeral, then unit.

Query string: Kindly indicate its recorded GI50. Item: COC1=CC[C@@H]([C@@H](C)/C=C(C)/C=C\C=C\C(=O)N[C@H](C(=O)N/C=C\C[C@H](C/C=C(\C)Cl)O[Si](C)(C)C(C)(C)C)C(C)(C)C)OC1=O [Compound 29e]
Result string: 1140 nM

Query string: Kindly indicate its recorded GI50. Item: COC1=CC[C@@H]([C@@H](C)/C=C(C)/C=C/C=C/C(=O)N[C@H](C(=O)N/C=C\C[C@H](C/C=C(\C)Cl)O[Si](C)(C)C(C)(C)C)C(C)(C)C)OC1=O [Compound 37]
Result string: 3100 nM

Answer for every listed entry: what is its GI50? The entries follow.
1. COC1=CC[C@@H]([C@@H](C)/C=C(C)/C=C\C=C\C(=O)N[C@H](C(=O)N/C=C\C[C@@H](O)C/C=C(\C)Cl)C(C)(C)C)OC1=O [Compound 30e]
2. COC1=CC[C@@H]([C@@H](C)/C=C(C)/C=C\C=C/C(=O)N[C@H](C(N)=O)C(C)(C)C)OC1=O [Compound 7]
3. COC1=CCC(C(C)/C=C(C)/C=C/C=C\C(=O)NC(C(=O)N/C=C\CC(C/C=C(\C)Cl)OC(N)=O)C(C)C)OC1=O (stereo not shown) [Compound 6]

Result string:
1. 23.1 nM
2. 420 nM
3. 0.49 nM

Answer for every listed entry: what is its GI50? The entries follow.
1. COC1=CC[C@@H]([C@@H](C)/C=C(C)/C=C\C=C/C(=O)N[C@@H](Cc2ccccc2)C(=O)N/C=C\C[C@H](C/C=C(\C)Cl)OC(N)=O)OC1=O [Compound 31]
2. COC1=CC[C@@H]([C@@H](C)/C=C(C)/C=C\C=C/C(=O)N[C@H](C(=O)N/C=C\C[C@H](C/C=C(\C)Cl)O[Si](C)(C)C(C)(C)C)C(C)(C)C)OC1=O [Compound 29a]
3. COC1=CC[C@@H]([C@@H](C)/C=C(C)/C=C\C=C/C(=O)N[C@@H](Cc2ccccc2)C(=O)N/C=C\C[C@@H](O)C/C=C(\C)Cl)OC1=O [Compound 30d]
4. COC1=CC[C@@H]([C@@H](C)/C=C(C)/C=C\C=C/C(=O)N[C@H](C(=O)N/C=C\C[C@@H](O)C/C=C(\C)Cl)C(C)C)OC1=O [Compound 30c]
5. COC1=CC[C@@H]([C@@H](C)/C=C(C)/C=C\C=C/C(=O)N[C@H](C(=O)N/C=C\C[C@@H](C/C=C(\C)Cl)OC(N)=O)C(C)C)OC1=O [(21S)-5]
6. C/C=C\C[C@@H](C/C=C\NC(=O)[C@@H](NC(=O)\C=C/C=C\C(C)=C\[C@H](C)[C@@H]1CC=C(OC)C(=O)O1)C(C)(C)C)OC(N)=O [Compound 4]

Result string:
1: 0.075 nM; 2: 1180 nM; 3: 0.31 nM; 4: 0.983 nM; 5: 4.56 nM; 6: 0.613 nM

Answer for every listed entry: what is its GI50? The entries follow.
1. COC1=CC[C@@H]([C@@H](C)/C=C(C)/C=C\C=C/C(=O)N[C@H](C(=O)N/C=C\C[C@@H](O)C/C=C(\C)Cl)C(C)(C)C)OC1=O [Compound 30a]
2. COC1=CC[C@@H]([C@@H](C)/C=C(C)/C=C/C=C/C(=O)N[C@H](C(=O)N/C=C\C[C@@H](O)C/C=C(\C)Cl)C(C)(C)C)OC1=O [Compound 38]

Result string:
1.95 nM
60.4 nM
